Data provenance is patent US20240279318A1.

biological target: T1, AFP158/HLA-A*02:01 complex (human); assay: SPR, scFv-mIgG2aFc from supernatant captured, complex as analyte
T1 construct: biotinylated on the BSP by BirA for ELISA and panning; also called biotinylated AFP158/HLA-A*02:01 complex; Bio-AFP158
pKd: −log10 of the molar value.
measured-parameter: pKd

1. AS170036 VL1VH2 scFv-mIgG2aFc (Fc fusion, not shown: a dimerising Fc or GST) scFv: QSALTQPRSVSGSPGQSVTISCAGTSSDVGSENYVSWYQQHPGKAPKLMIYQVNKRASGVPDRFSGSKSGNTASLTISGLQAEDEADYYCASYRSSDHNIVFGGGTKLTVLGGGGSGGGGSGGGGSEVQLVESGGGLVQPGGSLRLSCTASGFTFSSYAMSWVRQAPGKGLEWVSTINSGTGSPYYADSVKGRFTISRDNSKNTLYLQMNSLRAEDTAMYYCAKNFFDGSWFLGPPAMDYWGQGTLVTVSS    6.42
2. AS170036 VL2VH2 scFv-mIgG2aFc (Fc fusion, not shown: a dimerising Fc or GST) scFv: QSALTQPRSVSGSPGQSVTISCAGTSSDVGSENYVSWYQQHPGKAPKLLIYQVNKRASGIPDRFSGSKSGNTASLTISGLQAEDEADYYCASYRSSDHNIVFGGGTKLTVLGGGGSGGGGSGGGGSEVQLVESGGGLVQPGGSLRLSCTASGFTFSSYAMSWVRQAPGKGLEWVSTINSGTGSPYYADSVKGRFTISRDNSKNTLYLQMNSLRAEDTAMYYCAKNFFDGSWFLGPPAMDYWGQGTLVTVSS    6.41
3. AS170036 scFv-mIgG2aFc (Fc fusion, not shown: a dimerising Fc or GST, Camel scFv) QLVLTQPSSVSGTPGQTVTISCAGTSSDVGSENYVSWYRQLPGTAPKLLIYQVNKRASGIADRFSGSKSGNTASMTISGLQSADEADYYCASYRSSDHNIVFGGGTHLTVLGGGGSGGGGSGGGGSAVQLVESGGGLVQPGGSLRLSCTASGFTFSSYAMSWVRQAPGKGLEWVSTINSGTGSPYYADSVKGRFTISRDNAKNTLYLQLNSLKTEDTAMYYCAKNFFDGSWFLGPPAMDYWGKGTLVTISS    6.35
